# credit: the supplement of paper PMC10567573

variants and their reported protein stability index
B1: CCNC (parent)
chain: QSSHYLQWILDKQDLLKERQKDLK

Variants of: B1
Test: protein stability index of a GFP-peptide fusion (GPS, HEK-293T) (PSI 1-6); higher = more stable;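 also: lentivirally expressed fusions sorted by FACS into six bins by GFP to DsRed ratio, PSI derived from sequencing read proportions per bin multiplied by bin number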
Details: c terminus: a fixed tail appended
Answer with the value's number alone.

Annotate the variant "K12C" with its measured protein stability index.
2.46

Fill in reported protein stability index for this entry: "K21W"
2.3

Give protein stability index for "R19Q"
3.5

In one line, give reported protein stability index of the entry "K24A" .
2.66

Let me know recorded protein stability index for "L23K" , thanks.
3.6

Quick one: give measured protein stability index for "L6P"
4.53

Specify reported protein stability index for the variant shown: "L6D"
4.14

State its protein stability index for this variant: "D22K"
2.18

Name the recorded protein stability index of the variant listed here: "S3V"
2.29
